tested on: Soybean plants; assay: Soil drench assay, soybean plants; assay type: in vivo; parameters: key: NOE: No Observable Effect; XXX: Dead; -: the lowest phytotoxic effect; --: phytotoxicity that did not result in death; ---: phytotoxicity that did not result in death; ------: the highest; conditions: Soybean; 2-days after treatment; Young Plants; 1%; 40 mL
EXPERIMENTAL_ENDPOINT: phytotoxicity (qualitative), soil drench

{"SUBSTANCE_SMILES": "C=CCc1ccc(OCC(=O)O)c(OC)c1", "REPORTED_RESULT": "--"}
{"SUBSTANCE_SMILES": "COc1cc(C=O)ccc1OCC(=O)O", "REPORTED_RESULT": "NOE"}
{"SUBSTANCE_SMILES": "COc1cc(C(=O)O)ccc1OCC(=O)O", "REPORTED_RESULT": "NOE"}
{"SUBSTANCE_SMILES": "Cc1ccc(C(C)C)c(OCC(=O)O)c1", "REPORTED_RESULT": "---"}

---

tested on: Soybean plants; experiment: Soil drench assay, soybean plants; assay type: in vivo; set-up: key: NOE: No Observable Effect; XXX: Dead; -: the lowest phytotoxic effect; --: phytotoxicity that did not result in death; ---: phytotoxicity that did not result in death; ------: the highest; conditions: Soybean; 3-weeks after treatment; Old Plants; 0.50%; 40 mL
EXPERIMENTAL_ENDPOINT: phytotoxicity (qualitative), soil drench

{"COMPOUND": "COC(=O)COc1cc(C)ccc1C(C)C [thymyloxyacetate methyl ester]", "REPORTED_RESULT": "XXX"}
{"COMPOUND": "Cc1ccc(C(C)C)c(OCC(=O)O)c1 [thymyloxyacetic acid]", "REPORTED_RESULT": "-"}
{"COMPOUND": "Cc1ccc(C(C)C)cc1OCC(=O)O [carvacryloxyacetic acid]", "REPORTED_RESULT": "XXX"}
{"COMPOUND": "COc1cc(C(=O)O)ccc1OCC(=O)O [vanillic acid-oxyacetic acid]", "REPORTED_RESULT": "NOE"}
{"COMPOUND": "COc1cc(C=O)ccc1OCC(=O)O [vanillyloxyacetic acid]", "REPORTED_RESULT": "NOE"}
{"COMPOUND": "C=CCc1ccc(OCC(=O)O)c(OC)c1 [eugenyloxyacetic acid, 2-(4-allyl-2-methoxyphenoxy)acetic acid]", "REPORTED_RESULT": "XXX"}

---

system: Corn plants; experiment: Soil drench assay, corn plants; type: in vivo; parameters: key: NOE: No Observable Effect; XXX: Dead; -: the lowest phytotoxic effect; --: phytotoxicity that did not result in death; ---: phytotoxicity that did not result in death; ------: the highest; conditions: Corn; 2-days after treatment; Young Plants; 0.50%; 40 mL

{"COMPOUND": "Cc1ccc(C(C)C)cc1OCC(=O)O [carvacryloxyacetic acid]", "phytotoxicity (qualitative), soil drench": "-"}
{"COMPOUND": "COc1cc(C=O)ccc1OCC(=O)O [vanillyloxyacetic acid]", "phytotoxicity (qualitative), soil drench": "NOE"}
{"COMPOUND": "C=CCc1ccc(OCC(=O)O)c(OC)c1 [eugenyloxyacetic acid, 2-(4-allyl-2-methoxyphenoxy)acetic acid]", "phytotoxicity (qualitative), soil drench": "NOE"}
{"COMPOUND": "COc1cc(C(=O)O)ccc1OCC(=O)O [vanillic acid-oxyacetic acid]", "phytotoxicity (qualitative), soil drench": "NOE"}
{"COMPOUND": "Cc1ccc(C(C)C)c(OCC(=O)O)c1 [thymyloxyacetic acid]", "phytotoxicity (qualitative), soil drench": "-"}
{"COMPOUND": "COC(=O)COc1cc(C)ccc1C(C)C [thymyloxyacetate methyl ester]", "phytotoxicity (qualitative), soil drench": "--"}

---

system: Corn plants; test: Soil drench assay, corn plants; format: in vivo; set-up: key: NOE: No Observable Effect; XXX: Dead; -: the lowest phytotoxic effect; --: phytotoxicity that did not result in death; ---: phytotoxicity that did not result in death; ------: the highest; details: Corn; 3-weeks after treatment; Young Plants; 0.50%; 40 mL

{"COMPOUND": "C=CCc1ccc(OCC(=O)O)c(OC)c1 [eugenyloxyacetic acid, 2-(4-allyl-2-methoxyphenoxy)acetic acid]", "TESTED_SYSTEM": "Corn plants", "phytotoxicity (qualitative), soil drench": "-"}
{"COMPOUND": "COc1cc(C(=O)O)ccc1OCC(=O)O [vanillic acid-oxyacetic acid]", "TESTED_SYSTEM": "Corn plants", "phytotoxicity (qualitative), soil drench": "NOE"}
{"COMPOUND": "Cc1ccc(C(C)C)cc1OCC(=O)O [carvacryloxyacetic acid]", "TESTED_SYSTEM": "Corn plants", "phytotoxicity (qualitative), soil drench": "XXX"}
{"COMPOUND": "COC(=O)COc1cc(C)ccc1C(C)C [thymyloxyacetate methyl ester]", "TESTED_SYSTEM": "Corn plants", "phytotoxicity (qualitative), soil drench": "XXX"}
{"COMPOUND": "Cc1ccc(C(C)C)c(OCC(=O)O)c1 [thymyloxyacetic acid]", "TESTED_SYSTEM": "Corn plants", "phytotoxicity (qualitative), soil drench": "XXX"}
{"COMPOUND": "COc1cc(C=O)ccc1OCC(=O)O [vanillyloxyacetic acid]", "TESTED_SYSTEM": "Corn plants", "phytotoxicity (qualitative), soil drench": "NOE"}

---

tested on: Soybean plants; assay: Soil drench assay, soybean plants; assay type: in vivo; set-up: key: NOE: No Observable Effect; XXX: Dead; -: the lowest phytotoxic effect; --: phytotoxicity that did not result in death; ---: phytotoxicity that did not result in death; ------: the highest; settings: Soybean; 2-days after treatment; Old Plants; 0.50%; 40 mL
EXPERIMENTAL_ENDPOINT: phytotoxicity (qualitative), soil drench

{"COMPOUND": "COc1cc(C=O)ccc1OCC(=O)O [vanillyloxyacetic acid]", "TESTED_SYSTEM": "Soybean plants", "REPORTED_RESULT": "NOE"}
{"COMPOUND": "C=CCc1ccc(OCC(=O)O)c(OC)c1 [eugenyloxyacetic acid, 2-(4-allyl-2-methoxyphenoxy)acetic acid]", "TESTED_SYSTEM": "Soybean plants", "REPORTED_RESULT": "-"}
{"COMPOUND": "COc1cc(C(=O)O)ccc1OCC(=O)O [vanillic acid-oxyacetic acid]", "TESTED_SYSTEM": "Soybean plants", "REPORTED_RESULT": "NOE"}
{"COMPOUND": "COC(=O)COc1cc(C)ccc1C(C)C [thymyloxyacetate methyl ester]", "TESTED_SYSTEM": "Soybean plants", "REPORTED_RESULT": "---"}
{"COMPOUND": "Cc1ccc(C(C)C)c(OCC(=O)O)c1 [thymyloxyacetic acid]", "TESTED_SYSTEM": "Soybean plants", "REPORTED_RESULT": "-"}
{"COMPOUND": "Cc1ccc(C(C)C)cc1OCC(=O)O [carvacryloxyacetic acid]", "TESTED_SYSTEM": "Soybean plants", "REPORTED_RESULT": "--"}

---

tested on: Corn plants; assay: Soil drench assay, corn plants; type: in vivo; set-up: key: NOE: No Observable Effect; XXX: Dead; -: the lowest phytotoxic effect; --: phytotoxicity that did not result in death; ---: phytotoxicity that did not result in death; ------: the highest; conditions: Corn; 2-days after treatment; Old Plants; 0.50%; 40 mL

{"COMPOUND": "COC(=O)COc1cc(C)ccc1C(C)C [thymyloxyacetate methyl ester]", "TESTED_SYSTEM": "Corn plants", "phytotoxicity (qualitative), soil drench": "--"}
{"COMPOUND": "Cc1ccc(C(C)C)cc1OCC(=O)O", "TESTED_SYSTEM": "Corn plants", "phytotoxicity (qualitative), soil drench": "-"}
{"COMPOUND": "COc1cc(C(=O)O)ccc1OCC(=O)O", "TESTED_SYSTEM": "Corn plants", "phytotoxicity (qualitative), soil drench": "NOE"}
{"COMPOUND": "Cc1ccc(C(C)C)c(OCC(=O)O)c1", "TESTED_SYSTEM": "Corn plants", "phytotoxicity (qualitative), soil drench": "--"}
{"COMPOUND": "COc1cc(C=O)ccc1OCC(=O)O", "TESTED_SYSTEM": "Corn plants", "phytotoxicity (qualitative), soil drench": "NOE"}
{"COMPOUND": "C=CCc1ccc(OCC(=O)O)c(OC)c1", "TESTED_SYSTEM": "Corn plants", "phytotoxicity (qualitative), soil drench": "NOE"}

---

test system: Corn plants; test: Soil drench assay, corn plants; assay type: in vivo; set-up: key: NOE: No Observable Effect; XXX: Dead; -: the lowest phytotoxic effect; --: phytotoxicity that did not result in death; ---: phytotoxicity that did not result in death; ------: the highest; conditions: Corn; 2-days after treatment; Young Plants; 1%; 40 mL

{"COMPOUND": "Cc1ccc(C(C)C)c(OCC(=O)O)c1", "phytotoxicity (qualitative), soil drench": "-"}
{"COMPOUND": "COc1cc(C(=O)O)ccc1OCC(=O)O", "phytotoxicity (qualitative), soil drench": "NOE"}
{"COMPOUND": "Cc1ccc(C(C)C)cc1OCC(=O)O", "phytotoxicity (qualitative), soil drench": "-"}
{"COMPOUND": "C=CCc1ccc(OCC(=O)O)c(OC)c1", "phytotoxicity (qualitative), soil drench": "NOE"}
{"COMPOUND": "COC(=O)COc1cc(C)ccc1C(C)C [thymyloxyacetate methyl ester]", "phytotoxicity (qualitative), soil drench": "--"}
{"COMPOUND": "COc1cc(C=O)ccc1OCC(=O)O", "phytotoxicity (qualitative), soil drench": "NOE"}
